Each record here notes measured AC50.
target: Adenosine receptor A1 (Homo sapiens); further: assay procedure not described here
Sequence (P30542 whole entry): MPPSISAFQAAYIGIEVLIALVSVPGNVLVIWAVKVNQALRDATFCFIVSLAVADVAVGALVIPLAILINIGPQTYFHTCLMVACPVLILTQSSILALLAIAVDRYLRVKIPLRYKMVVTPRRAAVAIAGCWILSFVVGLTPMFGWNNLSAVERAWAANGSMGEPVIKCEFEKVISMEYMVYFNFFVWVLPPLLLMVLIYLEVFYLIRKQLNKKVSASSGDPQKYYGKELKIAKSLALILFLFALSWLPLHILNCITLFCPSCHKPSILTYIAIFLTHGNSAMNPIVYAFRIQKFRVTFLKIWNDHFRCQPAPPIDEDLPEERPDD

Take a look at these entries with their results.
COc1cc(Nc2c(C#N)cnc3cc(OCCCN4CCN(C)CC4)c(OC)cc23)c(Cl)cc1Cl [BOSUTINIB]    > 30 µM
NC[C@H]1CC[C@H](C(=O)O)CC1 [TRANEXAMIC ACID]    > 10 µM

Query COc1ccccc1OCC(O)COC(N)=O (centres undefined) [METHOCARBAMOL] on Adenosine receptor A1 (Homo sapiens); AC50 returned: > 10 µM

Query CN(C)[C@@H]1C(O)=C(C(N)=O)C(=O)[C@@]2(O)C(O)=C3C(=O)c4c(O)ccc(Cl)c4[C@@H](O)[C@H]3C[C@@H]12 [DEMECLOCYCLINE] on Adenosine receptor A1 (Homo sapiens); AC50 returned: > 10 µM

Query NC[C@H]1O[C@H](O[C@H]2[C@H](O)[C@@H](O[C@H]3O[C@H](CO)[C@@H](O)[C@H](N)[C@H]3O)[C@H](N)C[C@@H]2N)[C@H](O)[C@@H](O)[C@@H]1O [KANAMYCIN] on Adenosine receptor A1 (Homo sapiens); AC50 returned: > 10 µM

Query CC(C)NCC(O)COc1ccc(COCCOC(C)C)cc1 (centres undefined) [BISOPROLOL] on Adenosine receptor A1 (Homo sapiens); AC50 returned: > 30 µM

Query CCCCCCC(C)(C)c1cc(O)c2c(c1)OC(C)(C)C1CCC(=O)CC21 (centres undefined) [NABILONE] on Adenosine receptor A1 (Homo sapiens); AC50 returned: > 30 µM

Query CCCC(=O)N1CCCN(c2nc(N)c3cc(OC)c(OC)cc3n2)CC1 [BUNAZOSIN] on Adenosine receptor A1 (Homo sapiens); AC50 returned: > 30 µM

Query CN1CC[C@]23CCCC[C@H]2[C@H]1Cc1ccc(O)cc13 [LEVORPHANOL] on Adenosine receptor A1 (Homo sapiens); AC50 returned: > 10 µM

Query CC(C)(N)Cc1ccc(Cl)cc1 [CHLORPHENTERMINE] on Adenosine receptor A1 (Homo sapiens); AC50 returned: > 30 µM

====

target: Muscarinic acetylcholine receptor M2 (Homo sapiens); format: functional, cell-based; further: assay procedure not described here
Sequence (P08172 whole entry): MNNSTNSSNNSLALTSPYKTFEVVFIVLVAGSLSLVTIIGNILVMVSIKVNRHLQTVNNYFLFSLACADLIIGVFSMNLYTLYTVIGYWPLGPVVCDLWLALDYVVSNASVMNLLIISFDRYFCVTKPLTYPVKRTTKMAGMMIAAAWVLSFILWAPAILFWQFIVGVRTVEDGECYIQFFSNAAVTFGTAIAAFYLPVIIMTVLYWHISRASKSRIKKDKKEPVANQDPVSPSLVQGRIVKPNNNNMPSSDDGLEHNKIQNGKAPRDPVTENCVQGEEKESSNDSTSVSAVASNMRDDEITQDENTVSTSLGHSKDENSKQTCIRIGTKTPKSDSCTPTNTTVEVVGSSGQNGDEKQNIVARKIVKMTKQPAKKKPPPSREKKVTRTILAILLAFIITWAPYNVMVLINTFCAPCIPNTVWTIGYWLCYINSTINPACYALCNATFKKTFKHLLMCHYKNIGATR
Each record here notes measured AC50.

Take a look at these entries with their results.
O=C(CCCCC(=O)Nc1c(I)cc(I)c(C(=O)O)c1I)Nc1c(I)cc(I)c(C(=O)O)c1I [IODIPAMIDE]    > 10 µM
C[C@@H]1O[C@@H]1P(=O)(O)O [FOSFOMYCIN]    > 10 µM
Nc1nc(N)c2nc(-c3ccccc3)c(N)nc2n1    > 30 µM
Nc1ccc(/N=N/c2ccccc2)c(N)n1 [PHENAZOPYRIDINE]    > 30 µM
C1COC(NC(C2CC2)C2CC2)=N1 [RILMENIDINE]    > 10 µM

Form: molecule = CC[C@]1(O)C[C@@H]2CN(CCc3c([nH]c4ccccc34)[C@@](C(=O)OC)(c3cc4c(cc3OC)N(C)[C@H]3[C@@](O)(C(N)=O)[C@H](O)[C@]5(CC)C=CCN6CC[C@]43[C@@H]65)C2)C1 [VINDESINE] ; AC50 = > 30 µM

Form: molecule = Cc1cc(-c2ccccc2)nnc1NCCN1CCOCC1 [MINAPRINE] ; AC50 = > 10 µM
